- test-system: T1, Pus7 D256A (Saccharomyces cerevisiae, UniProt Q08647 1-676, D256A)
- T1 sequence: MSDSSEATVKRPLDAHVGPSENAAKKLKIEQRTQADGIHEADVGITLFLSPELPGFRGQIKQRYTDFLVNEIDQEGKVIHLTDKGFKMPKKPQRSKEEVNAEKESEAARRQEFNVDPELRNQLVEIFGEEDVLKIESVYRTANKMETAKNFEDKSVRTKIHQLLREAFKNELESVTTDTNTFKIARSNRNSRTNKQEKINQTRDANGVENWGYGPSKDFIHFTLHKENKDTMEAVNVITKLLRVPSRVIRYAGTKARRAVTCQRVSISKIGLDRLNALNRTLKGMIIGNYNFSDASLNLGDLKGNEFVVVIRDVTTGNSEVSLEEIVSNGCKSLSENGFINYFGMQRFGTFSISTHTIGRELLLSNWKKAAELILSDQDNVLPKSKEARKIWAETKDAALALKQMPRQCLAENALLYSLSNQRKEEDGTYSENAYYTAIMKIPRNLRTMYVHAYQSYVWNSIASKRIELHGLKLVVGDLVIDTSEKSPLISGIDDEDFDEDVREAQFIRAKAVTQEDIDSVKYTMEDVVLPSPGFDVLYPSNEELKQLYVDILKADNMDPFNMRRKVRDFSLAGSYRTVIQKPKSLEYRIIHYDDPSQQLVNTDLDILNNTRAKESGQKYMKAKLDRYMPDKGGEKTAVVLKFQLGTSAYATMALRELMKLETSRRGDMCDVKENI
- protocol: EMSA
value-kind: pKd
Scale for pKd: -log10 of concentration given in mol/L; no unit attached.

// lookup pKd for CDC8 (cdc8-FL, 61 nt) (ssRNA) RNA: GUCAAUCACGAUUGUAGACGUUACUAAUAAGGGCAUUCAGGAAGUUGAAGCGCUUAUUUGG 7.22
